- Test Target: T1, CSP Protein (Plasmodium falciparum, UniProt Q7K740 19-374)
- T1 construct: also called circumsporozoite protein; complete CSP protein
- T1 sequence (Q7K740 19-374 limits assumed): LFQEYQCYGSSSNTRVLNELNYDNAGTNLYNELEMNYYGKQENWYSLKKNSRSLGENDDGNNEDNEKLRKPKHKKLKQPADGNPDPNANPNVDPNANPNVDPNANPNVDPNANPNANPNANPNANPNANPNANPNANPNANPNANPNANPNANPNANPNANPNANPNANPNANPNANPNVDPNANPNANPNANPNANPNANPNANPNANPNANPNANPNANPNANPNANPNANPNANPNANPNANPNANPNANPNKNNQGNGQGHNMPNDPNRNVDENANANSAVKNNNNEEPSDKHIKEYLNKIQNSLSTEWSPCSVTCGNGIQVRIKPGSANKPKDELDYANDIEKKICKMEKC
- Test Summary: SPR, antibody on chip;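 further: antibodies immobilized on a Carterra chip, directly or via anti-human Fc capture, at two spots each, with CSP flowed over at 4-5 concentrations peaking at 0.5-8 µg/mL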
Answer each item with its documented Kd.
Write it as a number; the unit nM goes unstated.

Item under review: AB-007072 (antibody, V domains shown) VH: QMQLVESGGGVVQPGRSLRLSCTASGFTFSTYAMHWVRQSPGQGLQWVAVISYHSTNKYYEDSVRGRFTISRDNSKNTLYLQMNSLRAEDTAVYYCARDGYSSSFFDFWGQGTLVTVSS VL: DIQMTQSPSTLSASVGDRVAITCRASQSISRWLAWYQQQPGKAPKLLMSGASNLESGVPSRFSGSGSGTEFTLTISSLQPDDFATYYCQHYNSYFVTFGQGTKVEIK . Reported Kd?
0.194

Given the binder AB-007030 (antibody, V domains shown) VH: QMQLVESGGGVVQPGRSLRLSCTASGFTFSTYAMHWVRQSPGQGLEWVAVISYHSTNKYYADSVRGRFTISRDNSKNTLYLQMNSLRAEDTAVYYCARDGYSSSFFDFWGQGTLVTVSS VL: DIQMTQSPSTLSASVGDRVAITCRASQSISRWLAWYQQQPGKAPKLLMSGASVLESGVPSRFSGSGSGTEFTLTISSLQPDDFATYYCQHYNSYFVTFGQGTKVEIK , what is its reported Kd?
0.132
